// reported IC50 for each item listed
- Test target: human TRPV3 (Homo sapiens)
- Construct: expressed in transfected cells
- Sequence (Q8NET8 whole entry): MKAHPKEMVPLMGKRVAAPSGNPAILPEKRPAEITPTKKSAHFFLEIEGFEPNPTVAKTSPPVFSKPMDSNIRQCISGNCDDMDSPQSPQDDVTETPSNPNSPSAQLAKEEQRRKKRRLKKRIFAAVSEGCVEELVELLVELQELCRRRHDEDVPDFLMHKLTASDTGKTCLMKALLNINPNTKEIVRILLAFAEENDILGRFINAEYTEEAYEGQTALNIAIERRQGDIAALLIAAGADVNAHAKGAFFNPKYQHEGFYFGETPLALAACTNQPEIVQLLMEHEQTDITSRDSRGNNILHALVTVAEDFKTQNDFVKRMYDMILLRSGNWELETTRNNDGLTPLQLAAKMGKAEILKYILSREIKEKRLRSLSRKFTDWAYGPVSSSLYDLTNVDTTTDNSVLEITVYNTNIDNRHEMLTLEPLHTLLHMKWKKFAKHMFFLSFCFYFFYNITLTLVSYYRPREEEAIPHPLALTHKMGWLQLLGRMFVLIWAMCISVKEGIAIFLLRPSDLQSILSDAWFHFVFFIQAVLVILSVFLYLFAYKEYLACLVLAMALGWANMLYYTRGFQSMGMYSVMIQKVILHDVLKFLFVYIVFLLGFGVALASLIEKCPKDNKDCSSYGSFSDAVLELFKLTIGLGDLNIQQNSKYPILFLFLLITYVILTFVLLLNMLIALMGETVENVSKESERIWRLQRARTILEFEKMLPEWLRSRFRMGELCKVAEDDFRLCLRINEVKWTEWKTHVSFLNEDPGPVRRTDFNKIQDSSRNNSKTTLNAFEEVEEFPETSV
- Protocol details: In vitro antagonism of recombinant human TRPV3 activation (FLIPR Tetra calcium assay, 2-APB as agonist)
- Type: cell-based
- Protocol conditions: HEK293 cells stably expressing human TRPV3; 2-APB 80 μM; range class; read-out: IC50 (reported range)

For orientation, consider the following solved cases.
| Compound | Property | Experimental result |
| --- | --- | --- |
| OC1CC(c2ccc(OC(F)(F)F)cc2)(C(O)c2ccccn2)C1 (stereo not shown) [Example 132] | IC50 | 5.1 to 20 µM |
| O[C@H](c1ccccn1)[C@@]1(c2ccc(Cl)c(Cl)c2)CCO1 [Example 135] | IC50 | 0.501 to 1 µM |
| OC(c1ccccn1)C1(c2ccc(F)c(F)c2)CCOCC1 (stereo not shown) [Example 63] | IC50 | 5.1 to 20 µM |
| OC1CC(c2ccc(Cl)c(Cl)c2)(C(O)c2ccccn2)C1 (single isomer, unassigned) [Example 118] | IC50 | 0.05 to 0.5 µM |
| OC(CC1(c2ccc(OC(F)(F)F)cc2)CCC1)c1ccccn1 (stereo not shown) [Example 76] | IC50 | 0.501 to 1 µM |
| OC(c1ccccn1)C1(c2ccccc2F)CCC1 (stereo not shown) [Example 1] | IC50 | 1.1 to 5 µM |

Query string: Could you tell me which IC50 is on file for CC1(O)CC(c2cccc(C(F)(F)F)c2)(C(O)c2ccccn2)C1 (stereo not shown) [Example 244] ?
Result string: 1.1 to 5 µM

Query string: Given the compound CN1CC(c2ccc(C(F)(F)F)cc2)(C(O)c2ccccn2)C1 (stereo not shown) [Example 155] , what is its reported IC50?
Result string: 5.1 to 20 µM

Query string: May I ask what IC50 has been recorded for OC(c1ccccn1)C1(c2cccc(C(F)(F)F)c2)CC2(C1)OCCO2 (stereo not shown) [Example 242] ?
Result string: 5.1 to 20 µM

Query string: Param item = CC1(O)CC(c2ccnc(C(F)(F)F)c2)(C(O)c2ccccn2)C1 (stereo not shown) [Example 307] ; retrieve measured IC50.
Result string: 5.1 to 20 µM

Query string: May I ask what IC50 has been recorded for OC(c1ccccn1)C1(c2ccccc2)CCOCC1 (stereo not shown) [Example 60] ?
Result string: 5.1 to 20 µM

Query string: Param item = OC(CC1(c2ccc(Cl)c(Cl)c2)CCC1)c1ccccn1 (stereo not shown) [Example 73] ; retrieve measured IC50.
Result string: 1.1 to 5 µM

Query string: Fill in the blank: the reported IC50 of OC(c1ncccn1)C1(c2ccccc2OC(F)(F)F)CCC1 (stereo not shown) [Example 36] is ____.
Result string: 5.1 to 20 µM

Query string: Dear colleague, I am looking for the recorded IC50 of the following compound: N[C@@H]1CCC[C@@H]1[C@@H](O)C1(c2ccc(OC(F)(F)F)cc2)CCC1 [Example 221]
Result string: 1.1 to 5 µM
